These entries and their values trace back to ChEMBL document CHEMBL4837239.

Target: Focal adhesion kinase 1 (Homo sapiens)
Sequence (Q05397 whole entry): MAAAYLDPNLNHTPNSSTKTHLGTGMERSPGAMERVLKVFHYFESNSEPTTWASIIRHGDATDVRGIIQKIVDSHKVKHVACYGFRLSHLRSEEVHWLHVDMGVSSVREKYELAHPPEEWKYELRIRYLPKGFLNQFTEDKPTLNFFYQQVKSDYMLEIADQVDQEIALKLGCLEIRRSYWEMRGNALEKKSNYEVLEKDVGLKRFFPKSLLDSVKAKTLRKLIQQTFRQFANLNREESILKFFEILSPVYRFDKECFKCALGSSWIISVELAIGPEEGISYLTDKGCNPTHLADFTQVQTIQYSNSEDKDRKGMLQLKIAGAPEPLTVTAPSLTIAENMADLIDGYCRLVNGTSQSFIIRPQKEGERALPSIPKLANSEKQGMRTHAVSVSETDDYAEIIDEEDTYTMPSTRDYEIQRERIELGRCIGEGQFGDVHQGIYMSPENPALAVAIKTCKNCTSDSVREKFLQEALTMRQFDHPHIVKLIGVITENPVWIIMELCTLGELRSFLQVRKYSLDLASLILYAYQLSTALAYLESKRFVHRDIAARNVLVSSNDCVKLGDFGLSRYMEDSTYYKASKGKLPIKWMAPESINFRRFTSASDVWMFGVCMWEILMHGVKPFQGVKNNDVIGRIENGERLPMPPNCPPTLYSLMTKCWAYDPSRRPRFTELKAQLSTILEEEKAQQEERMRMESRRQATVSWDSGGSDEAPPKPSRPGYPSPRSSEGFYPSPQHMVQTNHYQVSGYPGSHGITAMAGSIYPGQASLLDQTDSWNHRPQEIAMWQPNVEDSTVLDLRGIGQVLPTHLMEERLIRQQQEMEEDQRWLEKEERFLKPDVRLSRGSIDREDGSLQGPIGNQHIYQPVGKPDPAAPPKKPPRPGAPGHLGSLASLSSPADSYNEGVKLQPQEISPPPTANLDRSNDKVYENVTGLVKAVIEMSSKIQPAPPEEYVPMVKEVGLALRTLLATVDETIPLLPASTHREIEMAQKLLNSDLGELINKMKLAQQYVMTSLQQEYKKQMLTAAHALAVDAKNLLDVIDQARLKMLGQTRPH
Test: Inhibition of FAK (unknown origin)
reported_property: IC50 (nM)
Numbers only, in nM.

Input line: Can you look up the measured IC50 of "CCN1CCN(c2ccc(Nc3ncc4scc(-c5cccc(NS(C)(=O)=O)c5)c4n3)cc2)CC1" for me?
Output line: 9.7

----------
Biological target: Epithelial discoidin domain-containing receptor 1 (Homo sapiens)
Sequence (Q08345 whole entry, the tested form may be a part): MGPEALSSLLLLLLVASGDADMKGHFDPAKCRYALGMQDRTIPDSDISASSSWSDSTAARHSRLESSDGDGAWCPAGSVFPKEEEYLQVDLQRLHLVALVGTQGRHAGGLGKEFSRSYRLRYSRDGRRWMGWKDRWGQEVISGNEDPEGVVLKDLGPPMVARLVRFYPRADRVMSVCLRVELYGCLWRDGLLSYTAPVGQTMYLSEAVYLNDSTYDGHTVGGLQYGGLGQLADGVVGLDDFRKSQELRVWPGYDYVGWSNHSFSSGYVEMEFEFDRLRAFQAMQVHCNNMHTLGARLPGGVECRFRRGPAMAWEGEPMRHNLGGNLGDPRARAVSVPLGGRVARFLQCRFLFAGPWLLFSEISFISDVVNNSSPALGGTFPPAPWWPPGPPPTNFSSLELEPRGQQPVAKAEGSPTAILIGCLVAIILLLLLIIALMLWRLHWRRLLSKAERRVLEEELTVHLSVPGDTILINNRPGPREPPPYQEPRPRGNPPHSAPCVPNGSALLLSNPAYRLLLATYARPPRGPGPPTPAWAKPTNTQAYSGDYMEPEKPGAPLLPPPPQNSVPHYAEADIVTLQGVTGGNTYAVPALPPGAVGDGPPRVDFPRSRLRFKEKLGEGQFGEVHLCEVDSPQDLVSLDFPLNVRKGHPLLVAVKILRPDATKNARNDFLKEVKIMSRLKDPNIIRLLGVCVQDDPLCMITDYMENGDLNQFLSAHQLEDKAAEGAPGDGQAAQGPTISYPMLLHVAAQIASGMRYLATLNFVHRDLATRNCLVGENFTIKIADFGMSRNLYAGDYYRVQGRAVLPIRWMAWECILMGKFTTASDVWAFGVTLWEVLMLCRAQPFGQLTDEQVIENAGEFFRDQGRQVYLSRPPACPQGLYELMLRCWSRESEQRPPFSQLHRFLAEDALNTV
Assay: Inhibition of DDR1 (unknown origin)
reported_property: pIC50
One number for each entry, as −log10 of the molar value.

Input line: Can you look up the measured pIC50 of "CCN1CCN(c2ccc(Nc3ncc4scc(-c5cccc(NS(C)(=O)=O)c5)c4n3)cc2)CC1" for me?
Output line: 8.36
